System: Fibroblast
Assay: Multiplex assay against human fibroblast
Format: toxicity, cell-based
Settings: 12 h, 1 µM, compound concentration 1 uM, replicate 2
Exercise: state measured Population Hoechst High Intensity Objects (%) for each of the molecules provided.
Enter your answer as a number in %; do not include the unit.

For COC(=O)C1=C(C)NC(C)=C(C(=O)OCCCN2CCC(c3ccccc3)(c3ccccc3)CC2)[C@H]1c1cccc([N+](=O)[O-])c1 [NIGULDIPINE] , what is its reported Population Hoechst High Intensity Objects (%)?
9

For Cc1nc(N2CC[C@H](O)C2)ncc1-c1cc(C(F)(F)F)cc2[nH]ncc12 , what is its reported Population Hoechst High Intensity Objects (%)?
40

For CC(C)Oc1ccccc1C(=O)Nc1ccccc1C(=O)Nc1cccc(S(=O)(=O)C(F)(F)F)c1 , what is its reported Population Hoechst High Intensity Objects (%)?
5

For C=CC(=O)Nc1cccc(Sc2nc(Nc3ccc(N4CCN(C)CC4)cc3)ncc2Cl)c1 , what is its reported Population Hoechst High Intensity Objects (%)?
20

For CC(C)OC(=O)N1CCC(Oc2ncnc3c2cnn3-c2ccc(S(C)(=O)=O)cc2F)CC1 , what is its reported Population Hoechst High Intensity Objects (%)?
7

For COc1cc(Nc2nccc(-c3cnn4nc(OC)ccc34)n2)cc(C(F)(F)F)c1 , what is its reported Population Hoechst High Intensity Objects (%)?
3

For Cc1ccccc1C(c1ccccc1C)N1C2CCC1CC(O)(c1ccccc1)C2 (stereo not given) , what is its reported Population Hoechst High Intensity Objects (%)?
9

For COc1ccccc1CN[C@H]1C2CCN(CC2)[C@H]1C(c1ccccc1)c1ccccc1 [CP-96345] , what is its reported Population Hoechst High Intensity Objects (%)?
0

For COc1ccc(-c2ccc3ncc4c(c3c2)n(-c2ccc(N3CCNCC3)c(C(F)(F)F)c2)c(=O)n4C)cn1.O=C(O)/C=C\C(=O)O [BGT-226] , what is its reported Population Hoechst High Intensity Objects (%)?
17

For O=c1cc(N2CCOCC2)oc2c(-c3cccc4c3sc3ccccc34)cccc12 , what is its reported Population Hoechst High Intensity Objects (%)?
10
